Values compiled from patent US20230183355A1.

- assay.system: T1, human CD11d/CD18 expressed on JY cells (human, UniProt Q13349 18-1161; P05107 23-769)
- T1 construct: whole, on cells
- T1 sequence (Q13349 18-1161, chain 1 of 2): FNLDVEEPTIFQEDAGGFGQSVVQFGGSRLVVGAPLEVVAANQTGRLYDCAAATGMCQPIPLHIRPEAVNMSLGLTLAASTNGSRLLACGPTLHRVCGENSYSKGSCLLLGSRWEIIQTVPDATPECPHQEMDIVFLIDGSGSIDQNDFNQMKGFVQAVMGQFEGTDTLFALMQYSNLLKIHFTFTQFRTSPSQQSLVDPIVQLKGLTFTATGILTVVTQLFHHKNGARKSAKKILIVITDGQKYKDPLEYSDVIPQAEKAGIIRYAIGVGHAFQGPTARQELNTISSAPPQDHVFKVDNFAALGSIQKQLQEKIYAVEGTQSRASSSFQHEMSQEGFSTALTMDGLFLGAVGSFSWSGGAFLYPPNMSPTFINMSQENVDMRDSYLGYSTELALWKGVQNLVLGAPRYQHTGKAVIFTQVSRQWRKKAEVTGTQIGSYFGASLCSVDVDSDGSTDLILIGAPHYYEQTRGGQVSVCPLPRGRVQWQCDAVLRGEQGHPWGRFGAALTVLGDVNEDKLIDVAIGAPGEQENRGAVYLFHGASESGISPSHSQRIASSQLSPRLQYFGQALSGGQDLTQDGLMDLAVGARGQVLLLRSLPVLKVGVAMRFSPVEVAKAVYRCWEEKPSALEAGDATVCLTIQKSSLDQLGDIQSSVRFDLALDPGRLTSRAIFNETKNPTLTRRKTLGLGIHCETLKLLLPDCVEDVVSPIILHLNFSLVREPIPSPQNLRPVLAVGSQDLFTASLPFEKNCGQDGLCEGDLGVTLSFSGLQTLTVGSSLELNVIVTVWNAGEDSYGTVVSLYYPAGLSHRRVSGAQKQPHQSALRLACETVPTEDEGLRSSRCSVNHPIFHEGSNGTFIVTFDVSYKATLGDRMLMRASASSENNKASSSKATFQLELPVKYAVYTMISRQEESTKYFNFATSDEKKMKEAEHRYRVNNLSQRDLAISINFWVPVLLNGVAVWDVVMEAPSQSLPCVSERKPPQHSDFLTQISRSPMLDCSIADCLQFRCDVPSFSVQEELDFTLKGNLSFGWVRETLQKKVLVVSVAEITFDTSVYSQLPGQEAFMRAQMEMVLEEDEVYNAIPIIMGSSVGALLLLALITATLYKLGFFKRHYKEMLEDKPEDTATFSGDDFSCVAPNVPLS
- T1 sequence (P05107 23-769, chain 2 of 2): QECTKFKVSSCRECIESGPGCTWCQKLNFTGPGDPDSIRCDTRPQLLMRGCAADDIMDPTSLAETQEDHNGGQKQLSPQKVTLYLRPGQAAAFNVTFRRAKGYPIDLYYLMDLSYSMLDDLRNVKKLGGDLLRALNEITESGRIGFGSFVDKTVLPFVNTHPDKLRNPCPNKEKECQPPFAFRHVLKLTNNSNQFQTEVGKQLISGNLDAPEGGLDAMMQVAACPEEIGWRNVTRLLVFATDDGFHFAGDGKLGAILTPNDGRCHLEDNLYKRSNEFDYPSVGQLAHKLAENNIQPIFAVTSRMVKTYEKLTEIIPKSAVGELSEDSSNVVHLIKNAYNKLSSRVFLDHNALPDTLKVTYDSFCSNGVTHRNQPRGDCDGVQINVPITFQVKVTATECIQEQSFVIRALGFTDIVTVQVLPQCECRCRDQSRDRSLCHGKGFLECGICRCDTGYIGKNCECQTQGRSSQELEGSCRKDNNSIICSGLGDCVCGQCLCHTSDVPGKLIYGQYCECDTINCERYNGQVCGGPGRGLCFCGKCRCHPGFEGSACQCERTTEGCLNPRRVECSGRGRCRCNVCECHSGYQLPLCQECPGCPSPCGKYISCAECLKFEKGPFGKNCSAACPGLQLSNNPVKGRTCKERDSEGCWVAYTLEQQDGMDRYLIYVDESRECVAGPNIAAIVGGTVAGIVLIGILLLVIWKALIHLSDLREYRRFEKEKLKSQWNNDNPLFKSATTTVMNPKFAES
- assay.summary: FACS on JY cells expressing human CD11d/CD18; non-linear regression, one-site binding model
pKd: −log10 of the molar value.

binder	pKd
Exemplified Antibody 1 (antibody, human IgG4 S228P, kappa, F234A L235A, V domains shown, Humanized antibody, full LC (kappa) and HC (IgG4)) VH: QVQLVQSGAEVKKPGASVKVSCKASGYTFTDYNMHWVRQAPGQGLEWMGYIYPYNGDTGYNQNFKSRVTMTRDTSTSTVYMELSSLRSEDTAVYYCARGLIYYGYLNVAMDSWGQGTLVTVSS VL: DIQMTQSPSSLSASVGDRVTITCRASQSIGTRIHWYQQKPGKAPKLLIYFASESISGVPSRFSGSGSGTDFTLTISSLQPEDFATYYCQQSKIWPTTFGGGTKLEIKR	9.36
